The entries below come with measured IC50 values attached.
target: UniProtKB Q9Y210
Sequence (Q9Y210 whole entry): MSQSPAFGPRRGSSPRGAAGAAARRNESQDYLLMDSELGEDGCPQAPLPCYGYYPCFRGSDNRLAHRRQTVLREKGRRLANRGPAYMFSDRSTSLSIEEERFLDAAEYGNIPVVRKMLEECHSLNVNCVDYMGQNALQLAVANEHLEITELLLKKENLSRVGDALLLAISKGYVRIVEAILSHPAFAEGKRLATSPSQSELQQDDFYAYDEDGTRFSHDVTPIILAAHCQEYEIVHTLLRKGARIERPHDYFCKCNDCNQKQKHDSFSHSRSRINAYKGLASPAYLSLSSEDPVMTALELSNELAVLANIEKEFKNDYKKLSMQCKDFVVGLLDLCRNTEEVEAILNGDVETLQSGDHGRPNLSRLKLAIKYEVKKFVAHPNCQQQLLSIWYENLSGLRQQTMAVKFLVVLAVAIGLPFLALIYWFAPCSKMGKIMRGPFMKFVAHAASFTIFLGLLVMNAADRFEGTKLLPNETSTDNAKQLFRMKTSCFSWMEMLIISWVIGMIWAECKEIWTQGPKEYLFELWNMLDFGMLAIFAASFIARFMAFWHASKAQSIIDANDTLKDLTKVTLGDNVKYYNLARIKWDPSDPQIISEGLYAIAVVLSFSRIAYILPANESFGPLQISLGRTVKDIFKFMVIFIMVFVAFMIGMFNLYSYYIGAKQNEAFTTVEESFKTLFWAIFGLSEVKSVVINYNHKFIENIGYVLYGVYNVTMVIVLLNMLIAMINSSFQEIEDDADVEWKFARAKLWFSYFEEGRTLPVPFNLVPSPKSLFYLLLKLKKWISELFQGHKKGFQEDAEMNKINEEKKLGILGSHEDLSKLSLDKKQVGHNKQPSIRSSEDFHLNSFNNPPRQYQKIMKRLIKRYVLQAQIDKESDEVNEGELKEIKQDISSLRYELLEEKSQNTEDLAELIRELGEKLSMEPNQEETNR
test-name: High throughput screening assay: Fluo4/AM calcium fluorescence in HEK293/TREx cells expressing human TRPC6, agonist GSK1702934A (single concentration 10 μM and IC50 curves)
test-parameters: antagonist effect against human TRPC6, 7 concentrations 20 μM to 0.027 μM, triplicate
recorded-endpoint: IC50 (nM)

[[record]]
compound = "COc1cc(C(=O)N2CCC(c3ccc(N)nn3)CC2)ccc1-c1ccc(C(F)(F)F)cc1 [Compound 55]"
recorded_endpoint = "IC50"
measured = 430

[[record]]
compound = "COc1cc(C(=O)N2CCC(c3ccc(N)nn3)CC2)ncc1-c1ccc(OC2CCC2)nc1 [Compound 49]"
recorded_endpoint = "IC50"
measured = 140

[[record]]
compound = "COc1cc(C(=O)N2CCC(c3ccc(N)nn3)CC2)ncc1-c1ccc(Cl)cc1 [Compound 40]"
recorded_endpoint = "IC50"
measured = 73

[[record]]
compound = "Nc1ccc(C2CCN(C(=O)c3ccc(-c4ccc(F)cc4)cc3)CC2)nn1 [Compound 7]"
recorded_endpoint = "IC50"
measured = 3400

[[record]]
compound = "COc1cc(C(=O)N2CCN(c3ccc(N)nc3)[C@H](C)C2)ccc1-c1ccc(C(F)(F)F)cc1 [Compound 114]"
recorded_endpoint = "IC50"
measured = 67

[[record]]
compound = "COc1cc(C(=O)N2CCC(c3ccc(N)nn3)CC2)ncc1-c1ccc(C(F)(F)F)cc1Cl [Compound 24]"
recorded_endpoint = "IC50"
measured = 420

[[record]]
compound = "COc1cc(C(=O)N2CCN(c3ccc(N)nc3)CC2)ncc1-c1ccc(C(F)(F)F)nc1 [Compound 67]"
recorded_endpoint = "IC50"
measured = 210

[[record]]
compound = "CC(C)(C)c1ccc(-c2ccc(C(=O)N3CCC(c4ccc(N)nn4)CC3)cc2)cc1 [Compound 10]"
recorded_endpoint = "IC50"
measured = 9200

